# TEST_SYSTEM: T1, human PCSK9 (proprotein convertase subtilisin/kexin type 9), His-tagged, full-length (human, UniProt A8T644 31-152; Q8NBP7 153-692, limits assumed)
# T1 construct: The secreted protein is the prodomain plus the catalytic/Cys-rich part (N-terminus S153) after autocleavage; also called His-PCSK9; NARC-1
# T1 sequence (A8T644 31-152 limits assumed, chain 1 of 2): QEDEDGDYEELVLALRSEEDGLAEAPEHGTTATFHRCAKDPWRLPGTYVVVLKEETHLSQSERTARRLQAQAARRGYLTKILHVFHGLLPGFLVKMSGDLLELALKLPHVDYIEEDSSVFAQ
# T1 sequence (A8T644 other isoform, or with tags, fused parts or gaps limits assumed, chain 2 of 2): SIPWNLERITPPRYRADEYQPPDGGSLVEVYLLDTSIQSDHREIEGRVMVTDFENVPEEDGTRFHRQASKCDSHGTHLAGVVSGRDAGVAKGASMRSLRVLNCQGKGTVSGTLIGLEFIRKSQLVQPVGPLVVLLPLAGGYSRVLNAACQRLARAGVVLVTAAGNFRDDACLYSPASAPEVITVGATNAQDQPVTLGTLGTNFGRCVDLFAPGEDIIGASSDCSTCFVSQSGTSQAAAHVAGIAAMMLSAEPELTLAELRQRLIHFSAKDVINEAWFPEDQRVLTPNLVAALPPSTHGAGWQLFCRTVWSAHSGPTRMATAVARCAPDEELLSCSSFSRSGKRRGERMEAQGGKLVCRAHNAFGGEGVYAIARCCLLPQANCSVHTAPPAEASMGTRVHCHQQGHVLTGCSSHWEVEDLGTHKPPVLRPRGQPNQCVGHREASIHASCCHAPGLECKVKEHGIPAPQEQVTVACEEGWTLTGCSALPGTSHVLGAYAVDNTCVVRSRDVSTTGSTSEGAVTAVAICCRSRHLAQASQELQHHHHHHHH
# EXPERIMENT_SUMMARY: SPR, SensiQ Pioneer FE, amine-coupled protein, OneStep gradient injection (Method 3)
pKd: −log10 of the molar value. Bridge positions count the residues as written; N and C are the ends. Square brackets hold non-standard residues; d marks the D form. * marks the point of attachment. 5FAM = O=C1OC2(c3ccc(O)cc3Oc3cc(O)ccc32)c2ccc(C(=O)*)cc21; Ach = 2-aminocyclohexane-1-carboxylic acid
Label label 0 if pKd falls below 5; label label 1 in every other case.

A selection of reference data follows.
| BINDER | CLASS |
| --- | --- |
| Ac-MPWNLVRIGLLR-NH2 [Compound 51] | label 0 |
| Ac-FCLWNLKRIGAQCWF-NH2 (disulfide 2-13; SMILES CC[C@H](C)[C@@H]1NC(=O)[C@H](CCCNC(=N)N)NC(=O)[C@H](CCCCN)NC(=O)[C@H](CC(C)C)NC(=O)[C@H](CC(N)=O)NC(=O)[C@H](Cc2c[nH]c3ccccc23)NC(=O)[C@H](CC(C)C)NC(=O)[C@@H](NC(=O)[C@H](Cc2ccccc2)NC(C)=O)CSSC[C@@H](C(=O)N[C@@H](Cc2c[nH]c3ccccc23)C(=O)N[C@@H](Cc2ccccc2)C(N)=O)NC(=O)[C@H](CCC(N)=O)NC(=O)[C@H](C)NC(=O)CNC1=O) [Compound 96] | label 0 |

QUERY: Is it the case that Ac-CRL[Ach]WNLQRIGLPC-NH2 (disulfide 1-14) [Compound 82] has pKd reaching or exceeding 5?
RESULT: label 0

QUERY: Item: 5FAM-SGSGCRLPWNLQRIGLPC-NH2 (disulfide 5-18 (inferred)) [Compound 34]
RESULT: label 1

QUERY: # iterate: Ac-ALMPWNLVRIGLLR-NH2 [Compound 45]
RESULT: label 0

QUERY: Moving on to the next binder: Ac-PWNLVRIGLLR-NH2 [Compound 52]
RESULT: label 0

QUERY: Entry 5FAM-SGSGCFIPWNLQRIGLLC-NH2 (disulfide 5-18 (inferred)) [Compound 33] please
RESULT: label 1
